I'd be grateful if you could share measured pEC50 for these entries.
EXPERIMENTAL SYSTEM: CEGPCR12h receptor (Caenorhabditis elegans, UniProt Q20275)
Sequence (Q20275 1-402): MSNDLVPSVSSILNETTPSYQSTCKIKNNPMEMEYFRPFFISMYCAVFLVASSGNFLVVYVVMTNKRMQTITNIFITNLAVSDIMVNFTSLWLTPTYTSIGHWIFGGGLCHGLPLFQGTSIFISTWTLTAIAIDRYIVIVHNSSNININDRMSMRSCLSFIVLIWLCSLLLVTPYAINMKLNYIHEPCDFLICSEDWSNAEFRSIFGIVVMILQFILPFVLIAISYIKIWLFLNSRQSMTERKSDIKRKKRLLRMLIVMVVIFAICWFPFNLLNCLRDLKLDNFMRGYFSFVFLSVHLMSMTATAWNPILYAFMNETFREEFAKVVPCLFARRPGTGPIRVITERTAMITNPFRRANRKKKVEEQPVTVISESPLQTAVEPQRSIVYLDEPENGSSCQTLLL
ASSAY SUMMARY: [35S]GTPγS binding assay, CEGPCR12h expressed in CHO cells
Assay type: biochemical, C. elegans
STATED CONDITIONS: Table 11; one range for the group; results apply to all CEGPCR12 isoforms; read-out: EC50 range
pEC50: −log10 of the molar value. Where no end group is shown, it is not given here.

Summary for this substance, FDDYGHLRF-NH2 [FDDYGHLRF-NH2] : pEC50 is 6.30 to 6.52

Summary for this substance, GGPQGPLRF-NH2 [GGPQGPLRF-NH2] : pEC50 is 5.52 to 5.82
